assay: Stability of markers in solution at room temperature, followed by peak retention time on chromatography; type: physicochemical; conditions: solution at room temperature, 0.1 mg/ml; 1st of four analyses at 8 hour intervals over 24 hours
value kind: Peak Retention Time (min)

[[record]]
molecule = "TV-109: 109-mer sequence-defined polypeptide molecular weight marker, molecular weight = 11727 daltons (peptide) AKKYAKKAEKAYAKKAKAAKEKKAYAKKEAKAYKAAEAKKKAKAEAKKYAKEAAKAKKEAYKAEAKKYAKAAKAEKKEYAAAEAKKAEAAKAYKAEAAKAAAKEAAYEA"
numeric_value = 24.783

[[record]]
molecule = "TV-86: 86-mer sequence-defined polypeptide molecular weight marker of Ala, Glu, Tyr, Lys, molecular weight = 9220 daltons (peptide) AKKYAKKEKAYAKKAEKAAKKAEAKAYKAAEAKKKAKAEAKKYAKAAKAEKKEYAAAEAKYKAEAAKKAYKAEAAKAAAKEAAYEA"
numeric_value = 26.117

[[record]]
molecule = "TV-77: 77-mer sequence-defined polypeptide molecular weight marker of Ala, Glu, Tyr, Lys, molecular weight = 8259 daltons (peptide) AKKYAKKEKAYAKKAEKAAKKAEAKAYKAAEAKKKAKAEAKKYAKAAKAEKKEYAAAEAKYKAEAAKAAAKEAAYEA"
numeric_value = 26.750

[[record]]
molecule = "TV-66: 66-mer sequence-defined polypeptide molecular weight marker of Ala, Glu, Tyr, Lys, molecular weight = 7040 daltons (peptide) AKKYAKKEKAYAKAKKAEAKAAKKAKAEAKKYAKAAKAEKKEYAAAEAKYKAEAAKAAAKEAAYEA"
numeric_value = 27.400

